Provenance of the data: patent US20250289893A1

- TARGET: T1, human CD1d expressed on HEK-293 cells (human, UniProt P15813 20-335; P61769 21-119)
- T1 construct: also called HEK - CD1d
- ASSAY_NAME: flow cytometry, HEK-293 cells, 31.6 µg/ml antibody
MEASUREMENT_NAME: Fluorescence Intensity Geomean (normalized to background) (fold over background)
Entry rule: numbers only, all in fold over background.

A selection of reference data follows.
[
  {
    "BINDER": "77A (VR11851) (antibody, V domains shown, also called OX77a; antibody 77a) VH: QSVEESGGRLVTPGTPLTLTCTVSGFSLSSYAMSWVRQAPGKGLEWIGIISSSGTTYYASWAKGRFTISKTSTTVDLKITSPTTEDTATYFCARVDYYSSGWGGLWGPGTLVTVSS VL: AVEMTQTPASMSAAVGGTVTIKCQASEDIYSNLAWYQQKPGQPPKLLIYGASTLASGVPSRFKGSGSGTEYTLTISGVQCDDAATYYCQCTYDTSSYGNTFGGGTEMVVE",
    "READOUT_VALUE": 1
  },
  {
    "BINDER": "111 (VR12113) (antibody, V domains shown, also called OX111) VH: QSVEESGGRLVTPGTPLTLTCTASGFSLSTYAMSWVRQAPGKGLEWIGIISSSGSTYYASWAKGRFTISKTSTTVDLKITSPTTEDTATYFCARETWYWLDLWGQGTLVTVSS VL: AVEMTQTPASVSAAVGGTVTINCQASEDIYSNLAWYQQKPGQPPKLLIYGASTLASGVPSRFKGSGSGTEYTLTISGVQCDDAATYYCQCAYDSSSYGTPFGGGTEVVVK",
    "READOUT_VALUE": 1
  },
  {
    "BINDER": "116 (VR12117) (antibody, V domains shown, also called OX116) VH: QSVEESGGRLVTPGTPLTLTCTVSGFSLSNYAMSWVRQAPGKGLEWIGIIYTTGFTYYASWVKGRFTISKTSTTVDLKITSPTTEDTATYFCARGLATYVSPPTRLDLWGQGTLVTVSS VL: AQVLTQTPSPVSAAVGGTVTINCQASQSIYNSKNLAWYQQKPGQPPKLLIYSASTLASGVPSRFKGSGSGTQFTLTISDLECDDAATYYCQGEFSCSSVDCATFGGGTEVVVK",
    "READOUT_VALUE": 1
  }
]

Now let's try a different one.
Value of Fluorescence Intensity Geomean (normalized to background) reported for the binder 110 (VR12112) (antibody, V domains shown, also called OX110; antibody 110) VH: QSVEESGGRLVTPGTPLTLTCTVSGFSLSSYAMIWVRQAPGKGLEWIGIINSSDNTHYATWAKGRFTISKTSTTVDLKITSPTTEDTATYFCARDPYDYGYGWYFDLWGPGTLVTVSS VL: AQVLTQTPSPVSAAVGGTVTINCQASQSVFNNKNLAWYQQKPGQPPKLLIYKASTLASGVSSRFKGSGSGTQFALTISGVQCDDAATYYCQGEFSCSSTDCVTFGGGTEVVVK is 1.1
